# credit: patent US10508120B2

Target: human TYK2 (JH2domain-pseudokinase) (Homo sapiens (Human), UniProt P29597)
Sequence (P29597 556-888): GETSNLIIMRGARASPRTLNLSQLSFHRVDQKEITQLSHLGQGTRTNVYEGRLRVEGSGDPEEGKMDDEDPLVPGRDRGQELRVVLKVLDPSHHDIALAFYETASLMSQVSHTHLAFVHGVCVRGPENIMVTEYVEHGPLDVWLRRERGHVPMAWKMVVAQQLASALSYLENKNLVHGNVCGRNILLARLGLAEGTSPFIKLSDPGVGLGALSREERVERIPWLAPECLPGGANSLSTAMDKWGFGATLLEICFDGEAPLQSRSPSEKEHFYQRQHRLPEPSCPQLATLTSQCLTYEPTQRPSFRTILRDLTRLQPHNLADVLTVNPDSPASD
Assay: TYK2 JH2 Domain Binding Assay (KINOMEscan)
pKd: −log10 of the molar value.
Catalogue of compounds with associated pKd

- compound: "CNc1cc(Nc2cc(Cl)cn(C3CCN(C)CC3)c2=O)nc2c(C(=O)N[C@@H]3CC[C@H]3O)cnn12 [I-930]"
  pKd: "> 9.70"
- compound: "CNc1cc(Nc2cccn([C@H]3CC[C@H](O)CC3)c2=O)nc2c(C(N)=O)cnn12 [I-59]"
  pKd: "> 9.70"
- compound: "CNc1cc(Nc2cccn3ccnc23)nc2c(C(=O)N[C@H]3CC[C@@H]3OC)cnn12 [I-1052]"
  pKd: "> 9.70"
- compound: "CNc1cc(-c2cn(C(C)C)c3ncccc23)nc2c(C(=O)N[C@@H]3CC[C@]3(C)O)cnn12 [I-1326]"
  pKd: "> 9.70"
- compound: "CNc1cc(Nc2cccn([C@H]3CCC[C@@H](C#N)C3)c2=O)nc2c(C(=O)NC3CC3)cnn12 [I-1361]"
  pKd: "9.00 to 9.70"
- compound: "CNc1cc(Nc2cccc(N3CC4(CCO4)C3)n2)nc2c(C(=O)N[C@H]3C[C@H]3F)cnn12 [I-619]"
  pKd: "> 9.70"
- compound: "NC(=O)c1cnn2c(N)cc(Nc3cccn(-c4ccc(F)cc4)c3=O)nc12 [I-25]"
  pKd: "9.00 to 9.70"
- compound: "CNc1cc(Nc2cccn(-c3ccc(OC)cn3)c2=O)nc2c(C(=O)NC3CCC3)cnn12 [I-266]"
  pKd: "> 9.70"
- compound: "CNc1cc(Nc2cc(Cl)cn(C3CCN(C)CC3)c2=O)nc2c(C(=O)N[C@H]3CC[C@H]3O)cnn12 [I-1006]"
  pKd: "> 9.70"
- compound: "CNC(=O)c1occc1Nc1cc(NC)n2ncc(C(=O)N[C@@H]3CC[C@H]3OC)c2n1 [I-1322]"
  pKd: "> 9.70"
- compound: "CNc1cc(Nc2cccc([C@H]3CCCOC3)n2)nc2c(C(=O)N[C@@H]3CC[C@@H]3O)cnn12 [I-604]"
  pKd: "> 9.70"
- compound: "CNc1cc(Nc2cccn([C@@H]3CCC[C@@H]3O)c2=O)nc2c(C(=O)N[C@@H]3C[C@@H]3F)cnn12 [I-966]"
  pKd: "9.00 to 9.70"
- compound: "CNc1cc(Nc2cccn([C@H]3CCC[C@H]3O)c2=O)nc2c(C(=O)N[C@@H]3C[C@@H]3F)cnn12 [I-965]"
  pKd: "> 9.70"
- compound: "CNc1cc(Nc2cccn(C3CCOCC3)c2=O)nc2c(C(=O)NC[C@@H](C)CO)cnn12 [I-1032]"
  pKd: "9.00 to 9.70"
- compound: "CNc1cc(Nc2cccn([C@H]3CCC[C@@H](OC)C3)c2=O)nc2c(C(=O)N[C@@H]3C[C@@H]3F)cnn12 [I-795]"
  pKd: "> 9.70"
- compound: "CNc1cc(Nc2cccn([C@H]3CCC[C@H]3O)c2=O)nc2c(C(=O)N[C@H]3CC[C@@H]3OC)cnn12 [I-1101]"
  pKd: "> 9.70"

----------
# Lookup of reported Kd keyed by entry
Molecular target: human TYK2 (JH2domain-pseudokinase) (Homo sapiens (Human), UniProt P29597)
Assay: TYK2 JH2 Domain Binding Assay (KINOMEscan)
quantity: Kd

- molecule: "CNc1cc(Nc2cccn([C@H]3CCOC[C@H]3OC)c2=O)nc2c(C(=O)NC3CC3)cnn12"
  observed_value: "1 to 10 nM"
- molecule: "CNc1cc(Nc2cccn(C3CCOCC3)c2=O)nc2c(C(=O)N[C@@H]3CCCC[C@@]3(C)O)cnn12"
  observed_value: "0.2 to 1 nM"
- molecule: "CNc1cc(Nc2cccn([C@H]3CCCN(CCF)C3)c2=O)nc2c(C(=O)N[C@H]3CC[C@@H]3OC)cnn12"
  observed_value: "< 0.2 nM"
- molecule: "CNc1cc(Nc2cccn(C3CCOCC3)c2=O)nc2c(C(=O)N[C@H]3CCC[C@](C)(OC)C3)cnn12"
  observed_value: "0.2 to 1 nM"
- molecule: "CNc1cc(Nc2cccn(C3CC(F)(F)C3)c2=O)nc2c(C(=O)N[C@H]3CC[C@H]3O)cnn12"
  observed_value: "1 to 10 nM"
- molecule: "CCOc1ccc(-n2cccc(Nc3cc(NC)n4ncc(C(=O)N[C@H]5C[C@H]5F)c4n3)c2=O)nn1"
  observed_value: "< 0.2 nM"
- molecule: "CNc1cc(Nc2cc(C)nn(-c3cnn(C)c3)c2=O)nc2c(C(N)=O)cnn12"
  observed_value: "1 to 10 nM"
- molecule: "CNc1cc(Nc2cccn(-c3ccc(C(=O)N4CCCC4)cn3)c2=O)nc2c(C(=O)NC3CCC3)cnn12"
  observed_value: "< 0.2 nM"
- molecule: "CNc1cc(Nc2cccnc2OC2CC2)nc2c(C(=O)N[C@H]3CC[C@H](O)C3)cnn12 (stereo in doubt)"
  observed_value: "< 0.2 nM"
- molecule: "CNc1cc(Nc2cccn([C@H]3CC[C@@H](OC)CC3)c2=O)nc2c(C(=O)N[C@H]3C[C@H]3F)cnn12"
  observed_value: "< 0.2 nM"
- molecule: "CNc1cc(Nc2cccn(-c3ccn(C)n3)c2=O)nc2c(C(=O)N[C@H]3C[C@H]3F)cnn12"
  observed_value: "< 0.2 nM"
- molecule: "CNc1cc(-c2cn(C(C)C)c3ncccc23)nc2c(C(=O)N[C@@H]3C[C@@H]3F)cnn12 (stereo in doubt)"
  observed_value: "< 0.2 nM"
- molecule: "CNc1cc(Nc2cccn(-c3cccc(F)c3)c2=O)nc2c(C(=O)N[C@H]3COC[C@H]3O)cnn12 [I-1407]"
  observed_value: "< 0.2 nM"
- molecule: "CNc1cc(-c2cn([C@@H]3CCCOC3)c3ncccc23)nc2c(C(=O)N[C@H]3COC[C@H]3O)cnn12 [I-1185]"
  observed_value: "1 to 10 nM"
- molecule: "CNc1cc(Nc2cccn(-c3ccc(C)nc3)c2=O)nc2c(C(=O)N[C@H]3CCC[C@H](OC)C3)cnn12 [I-1188]"
  observed_value: "1 to 10 nM"
